Test Method Notes: Half life in simulated gastric fluid at 20 uM by LC-MS/MS analysis
Format: ADME
Measurement Kind: half-life at 20 µM

q: Reported half-life at 20 µM, compound CC(=O)NCCCC[C@H](NC(=O)C(C)(C)NC(=O)[C@H](Cc1ccc2ccccc2c1)NC(=O)[C@H](Cc1ccc(OCCN)cc1)NC(=O)[C@@H]1CSCC[C@H](NC(C)=O)C(=O)N[C@@H](CCC(N)=O)C(=O)N[C@@H]([C@@H](C)O)C(=O)N[C@@H](Cc2c[nH]c3ccccc23)C(=O)N[C@@H](CCC(N)=O)C(=O)N1)C(=O)N[C@@H](CC(N)=O)C(=O)N[C@@H](C)C(N)=O : ____
a: < 1 h

q: Reported half-life at 20 µM, compound CC(=O)NCCCC[C@H](NC(=O)[C@](C)(CCCCN)NC(=O)[C@H](Cc1ccc2ccccc2c1)NC(=O)[C@H](Cc1ccc(OCCN)cc1)NC(=O)[C@@H]1CSCC[C@H](NC(C)=O)C(=O)N[C@@H](CCC(N)=O)C(=O)N[C@@H]([C@@H](C)O)C(=O)N[C@@H](Cc2c[nH]c3ccccc23)C(=O)N[C@@H](CCC(N)=O)C(=O)N1)C(=O)N[C@@H](CC(N)=O)C(=O)NCC(N)=O : ____
a: > 6 h

q: Reported half-life at 20 µM, compound COc1ccc(C[C@H](NC(=O)[C@@H](NC(=O)[C@H](CCC(N)=O)NC(=O)[C@H](Cc2c[nH]c3ccccc23)NC(=O)[C@@H](NC(=O)[C@H](CC(N)=O)NC(=O)[C@@H](NC(C)=O)C(C)(C)S)[C@@H](C)O)C(C)(C)S)C(=O)N[C@@H](Cc2ccc3ccccc3c2)C(=O)NC2(C(=O)N[C@@H](CCCCNC(C)=O)C(=O)N[C@@H](CC(N)=O)C(=O)N[C@@H](CC(N)=O)C(N)=O)CCCCC2)cc1 : ____
a: > 6 h

---

Target: Interleukin-23 receptor (Homo sapiens, UniProt Q5VWK5)
Sequence (Q5VWK5 whole entry): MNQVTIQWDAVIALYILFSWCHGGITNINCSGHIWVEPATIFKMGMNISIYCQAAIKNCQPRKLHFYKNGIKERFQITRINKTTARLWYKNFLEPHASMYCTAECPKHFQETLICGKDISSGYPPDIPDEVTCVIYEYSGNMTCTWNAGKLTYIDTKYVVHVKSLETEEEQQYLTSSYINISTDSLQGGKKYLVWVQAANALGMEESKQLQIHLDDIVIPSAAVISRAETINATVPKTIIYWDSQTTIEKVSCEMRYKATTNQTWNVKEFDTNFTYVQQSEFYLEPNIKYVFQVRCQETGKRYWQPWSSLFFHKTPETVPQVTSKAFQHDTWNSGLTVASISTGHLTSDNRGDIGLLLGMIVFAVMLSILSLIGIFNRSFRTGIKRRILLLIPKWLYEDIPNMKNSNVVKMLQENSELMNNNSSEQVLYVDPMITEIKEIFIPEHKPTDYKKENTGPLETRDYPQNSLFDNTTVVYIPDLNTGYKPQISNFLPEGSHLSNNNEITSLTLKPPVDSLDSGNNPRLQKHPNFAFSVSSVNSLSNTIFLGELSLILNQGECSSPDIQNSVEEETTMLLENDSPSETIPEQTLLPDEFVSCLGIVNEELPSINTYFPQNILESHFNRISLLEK
Test Method Notes: Inhibition of interleukin-23 receptor in human DB cells assessed as reduction in IL-23-stimulated STAT3 phosphorylation incubated for 30 mins by HTRF assay
Format: cell-based
pIC50: −log10 of the molar value. *1 amine or outer side, *2 acyl side, *3 side chain or, on linkers, in order; H or OH if unused. Where a SMILES comes first, the peptide text is derived from it. Bridges are numbered along the chain shown (N, C = ends). [ ]: non-standard residue; d: D form. Abu(4-yl) = O=C([C@H](CC[*:3])N[*:1])[*:2]; 2Nal = N[C@@H](Cc1ccc2ccccc2c1)C(=O)O; AEF = NCCOc1ccc(C[C@H](N)C(=O)O)cc1; αMeK = C[C@](N)(CCCCN)C(=O)O
Measurement Kind: pIC50

q: Reported pIC50, compound CC(=O)NCCCC[C@](C)(NC(=O)[C@H](Cc1ccc2ccccc2c1)NC(=O)[C@H](Cc1ccc(OCCNC(C)=O)cc1)NC(=O)[C@@H](NC(=O)[C@H](CCC(N)=O)NC(=O)[C@H](Cc1c[nH]c2ccccc12)NC(=O)[C@@H](NC(=O)[C@H](CNC(C)=O)NC(=O)[C@@H](NC(C)=O)C(C)(C)S)[C@@H](C)O)C(C)(C)S)C(=O)N[C@@H](CCC(=O)O)C(=O)N[C@@H](CC(N)=O)C(=O)NCC(N)=O : ____
a: > 8.00

q: Reported pIC50, compound COc1ccc(C[C@H](NC(=O)[C@@H]2CSCC[C@H](NC(C)=O)C(=O)N[C@@H](CCC(N)=O)C(=O)N[C@@H]([C@@H](C)O)C(=O)N[C@@H](Cc3c[nH]c4ccccc34)C(=O)N[C@@H](CCC(N)=O)C(=O)N2)C(=O)N[C@@H](Cc2c[nH]c3ccccc23)C(=O)N[C@@](C)(CCCN)C(=O)N[C@@H](CCC(=O)O)C(=O)N[C@@H](CC(N)=O)C(=O)NCC(N)=O)cc1 : ____
a: > 8.00

q: Reported pIC50, compound CC(=O)N[C@H]1CCSC[C@@H](C(=O)N[C@@H](Cc2ccc(OCCN)cc2)C(=O)N[C@@H](Cc2ccc3ccccc3c2)C(=O)N[C@@](C)(CCCCN)C(=O)N[C@@H](CCC(=O)O)C(=O)N[C@@H](CC(N)=O)C(=O)N[C@@H](CCC(N)=O)C(N)=O)NC(=O)[C@H](CCC(N)=O)NC(=O)[C@H](Cc2c[nH]c3ccccc23)NC(=O)[C@H]([C@@H](C)O)NC(=O)[C@H](CCC(N)=O)NC1=O (Ac-[Abu(4-yl)]QTWQC[AEF][2Nal][αMeK]ENQ-NH2; thioether 1-6) : ____
a: > 8.00

---

Test Method Notes: Half life in simulated gastric fluid at 20 uM by LC-MS/MS analysis
Type: ADME
Measurement Kind: half-life at 20 µM

q: Reported half-life at 20 µM, compound CC(=O)N[C@H]1CCSC[C@@H](C(=O)N[C@@H](Cc2ccc(OCCN)cc2)C(=O)N[C@@H](Cc2ccc3ccccc3c2)C(=O)NC2(C(=O)N[C@@H](CCC(=O)O)C(=O)N[C@@H](CC(N)=O)C(=O)N[C@@H](CC(N)=O)C(N)=O)CCC2)NC(=O)[C@H](CCC(N)=O)NC(=O)[C@H](Cc2c[nH]c3ccccc23)NC(=O)[C@H]([C@@H](C)O)NC(=O)[C@H](CCC(N)=O)NC1=O : ____
a: 1 to 2 h

q: Reported half-life at 20 µM, compound COc1ccc(C[C@H](NC(=O)[C@@H]2CSCC[C@H](NC(C)=O)C(=O)N[C@@H](CCC(N)=O)C(=O)N[C@@H]([C@@H](C)O)C(=O)N[C@@H](Cc3c[nH]c4ccccc34)C(=O)N[C@@H](CCC(N)=O)C(=O)N2)C(=O)N[C@@H](Cc2c[nH]c3ccccc23)C(=O)N[C@@](C)(CCCN)C(=O)N[C@@H](CCC(=O)O)C(=O)N[C@@H](CC(N)=O)C(=O)NCC(N)=O)cc1 : ____
a: < 1 h

q: Reported half-life at 20 µM, compound CC(=O)N[C@@H](CCCNC(=N)N)C(=O)N[C@H]1CCSC[C@@H](C(=O)N[C@@H](Cc2ccc(OCCN)cc2)C(=O)N[C@@H](Cc2ccc3ccccc3c2)C(=O)N[C@@](C)(CCCCN)C(=O)N[C@@H](CCC(=O)O)C(=O)N[C@@H](CC(N)=O)C(=O)N[C@@H](CC(N)=O)C(N)=O)NC(=O)[C@H](CCC(N)=O)NC(=O)[C@H](Cc2c[nH]c3ccccc23)NC(=O)[C@H]([C@@H](C)O)NC(=O)[C@H](CCC(N)=O)NC1=O : ____
a: 2 to 3 h

q: Reported half-life at 20 µM, compound CC(=O)NCCCC[C@H](NC(=O)[C@](C)(CCCCN)NC(=O)[C@H](Cc1c[nH]c2ccccc12)NC(=O)[C@H](Cc1ccc(O)cc1)NC(=O)[C@@H](NC(=O)[C@H](CCC(N)=O)NC(=O)[C@H](Cc1c[nH]c2ccccc12)NC(=O)[C@@H](NC(=O)[C@H](CCC(N)=O)NC(=O)[C@@H](NC(C)=O)C(C)(C)S)[C@@H](C)O)C(C)(C)S)C(=O)N[C@@H](CC(N)=O)C(=O)NCC(N)=O : ____
a: > 6 h

q: Reported half-life at 20 µM, compound CC(=O)NCCCC[C@H](NC(=O)C(C)(C)NC(=O)[C@H](Cc1ccc2ccccc2c1)NC(=O)[C@H](Cc1ccc(OCCN)cc1)NC(=O)[C@@H](NC(=O)[C@H](CCC(N)=O)NC(=O)[C@H](Cc1c[nH]c2ccccc12)NC(=O)[C@@H](NC(=O)[C@@H](NC(=O)[C@@H](NC(C)=O)C(C)(C)S)[C@@H](C)O)[C@@H](C)O)C(C)(C)S)C(=O)N[C@@H](CC(N)=O)C(=O)N[C@@H](CC(N)=O)C(N)=O : ____
a: > 6 h

Entry source: ChEMBL document CHEMBL4417631
